Attribution: the supplement of paper PMC10065799

# targetOfAssay: FGFR3 (UniProt P22607)
# Sequence (P22607 whole entry, looked up): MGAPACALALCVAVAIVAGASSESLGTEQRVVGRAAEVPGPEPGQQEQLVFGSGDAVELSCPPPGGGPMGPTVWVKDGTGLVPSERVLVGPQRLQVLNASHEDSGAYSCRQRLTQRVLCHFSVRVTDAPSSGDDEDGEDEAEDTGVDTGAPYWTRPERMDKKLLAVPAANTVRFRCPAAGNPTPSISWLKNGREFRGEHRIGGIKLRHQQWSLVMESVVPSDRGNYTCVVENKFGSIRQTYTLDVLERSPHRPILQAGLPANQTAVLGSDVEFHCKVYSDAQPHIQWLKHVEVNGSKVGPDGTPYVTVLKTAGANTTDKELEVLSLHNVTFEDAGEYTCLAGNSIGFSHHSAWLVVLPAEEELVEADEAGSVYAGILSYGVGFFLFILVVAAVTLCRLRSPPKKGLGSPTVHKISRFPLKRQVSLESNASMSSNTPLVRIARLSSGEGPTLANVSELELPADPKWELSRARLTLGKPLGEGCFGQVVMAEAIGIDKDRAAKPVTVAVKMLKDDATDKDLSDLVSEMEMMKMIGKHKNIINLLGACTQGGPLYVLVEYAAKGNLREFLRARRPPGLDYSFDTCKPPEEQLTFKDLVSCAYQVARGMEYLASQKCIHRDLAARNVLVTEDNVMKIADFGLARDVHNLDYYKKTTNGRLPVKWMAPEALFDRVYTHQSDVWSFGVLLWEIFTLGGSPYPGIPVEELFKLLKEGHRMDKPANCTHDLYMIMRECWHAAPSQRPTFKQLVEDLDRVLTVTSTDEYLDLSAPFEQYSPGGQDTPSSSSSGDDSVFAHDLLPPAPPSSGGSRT
# assayName: phosphorylation enrichment, bacterial display (enrichment ratio); higher = better substrate or ligand; peptides without Tyr show the background;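 note: 11-residue human phosphosite peptides and single-mutation variants displayed on the E. coli surface, counted by deep sequencing, each peptide's frequency after selection divided by its frequency in the unselected input library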;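 note: frequency after pTyr selection over input frequency; kinase dosed for 20-30% of maximal phosphorylation in three min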
readout: phosphorylation enrichment
The answer should be a number; do not append a unit.

Guide cases for phosphorylation enrichment, answers given:
IGEGTYGQVFK [CDK13_Y716_YF]
0.402
DIMDLYNQPEP [IL36A_Y96]
0.688
ADKAAYLQNLN [MYH1_Y389]
0.637
NPPGMYPVTGP [LPP_Y346]
0.396
AKLKDYFIFNK [CCDC42_Y149_YF]
1
VDGSVYKLHPS [GCK_Y413]
0.583
GEHSIYCTVNN [CD55_Y266]
1.07
NAGDFYDLFGG [PTPN11_Y63_T59A_YF]
0.769
KDQGIYEDYVE [MYL6_Y86_T85I]
0.672
GKGGSYSKAEW [HLA-E_Y341]
0.378

## Task Tell me the measured phosphorylation enrichment of NFFEFYVDDPL [GCHFR_Y48_P53L_YF] , please.
## Result 0.874

## Task Tell me the measured phosphorylation enrichment of FTHSDYQFGQR [PKP2_Y166_S169G_YF] , please.
## Result 0.474

## Task Tell me the measured phosphorylation enrichment of YDRREYSRFEK [ITGB7_Y758] , please.
## Result 0.554

## Task Tell me the measured phosphorylation enrichment of LNPLIYTLRNA [OR4C46_Y285_K288R] , please.
## Result 0.863

---

# targetOfAssay: EPHB1 (UniProt P54762)
# Sequence (P54762 whole entry, looked up): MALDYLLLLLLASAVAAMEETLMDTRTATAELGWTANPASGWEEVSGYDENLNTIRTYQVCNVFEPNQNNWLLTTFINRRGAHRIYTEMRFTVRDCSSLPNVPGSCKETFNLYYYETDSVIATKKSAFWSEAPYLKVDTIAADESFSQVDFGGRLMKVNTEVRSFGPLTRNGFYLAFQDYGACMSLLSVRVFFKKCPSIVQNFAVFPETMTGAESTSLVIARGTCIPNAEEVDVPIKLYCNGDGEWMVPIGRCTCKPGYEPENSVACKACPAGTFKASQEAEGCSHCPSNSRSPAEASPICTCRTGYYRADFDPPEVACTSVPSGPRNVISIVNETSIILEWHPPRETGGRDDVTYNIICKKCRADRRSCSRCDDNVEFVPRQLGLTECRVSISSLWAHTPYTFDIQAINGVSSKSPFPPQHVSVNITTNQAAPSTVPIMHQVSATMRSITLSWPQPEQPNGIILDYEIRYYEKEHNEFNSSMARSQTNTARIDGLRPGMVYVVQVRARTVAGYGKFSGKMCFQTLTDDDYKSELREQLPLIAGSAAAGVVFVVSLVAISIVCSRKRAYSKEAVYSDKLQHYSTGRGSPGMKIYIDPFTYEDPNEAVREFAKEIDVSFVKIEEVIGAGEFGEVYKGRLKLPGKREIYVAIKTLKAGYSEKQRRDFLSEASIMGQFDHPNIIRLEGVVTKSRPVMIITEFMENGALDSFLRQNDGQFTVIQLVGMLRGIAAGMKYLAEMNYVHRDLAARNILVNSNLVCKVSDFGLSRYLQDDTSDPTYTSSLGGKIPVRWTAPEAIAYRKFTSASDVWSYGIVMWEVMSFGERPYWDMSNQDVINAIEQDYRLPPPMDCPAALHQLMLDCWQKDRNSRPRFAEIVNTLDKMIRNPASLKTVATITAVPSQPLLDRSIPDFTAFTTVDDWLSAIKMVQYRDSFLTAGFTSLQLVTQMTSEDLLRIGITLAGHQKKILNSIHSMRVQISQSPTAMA
# assayName: phosphorylation enrichment, bacterial display (enrichment ratio); higher = better substrate or ligand; peptides without Tyr show the background
# phosphorylation enrichment per record follows
The answer should be a number; do not append a unit.

Guide cases for phosphorylation enrichment, answers given:
NMRSTYAKLAA [SEC22B_Y193_H190R]
0.373
FSPPFYHRNCM [HGD_Y334_R330S_YF]
0.483
KIRDWYQRQRP [KRT14_Y151]
0.405

Now for another entry.
## Task Checklist item: phosphorylation enrichment tested on EPHB1 (UniProt P54762), entry RQSHNYLGGFA [SYK_Y47_R45H] , value?
## Result 0.427

---

# Tested on: c-Abl (mouse)
# assayName: phosphorylation enrichment, bacterial display (enrichment ratio); higher = better substrate or ligand; peptides without Tyr show the background
readout: phosphorylation enrichment
The answer should be a number; do not append a unit.

Guide cases for phosphorylation enrichment, answers given:
LEKISYVFMKR [SSX7_Y48_YF]
0.811
FADIAYNFRHR [PAH_Y166_G171R_YF]
0.537
KERNQYGEVMV [MMP21_Y347]
0.683
GFAGKYIAMVM [CYP19A1_Y441_C437Y_YF]
0.473
FRDMDYRSFPH [RBM10_Y41_R46H_YF]
0.549

## Task Tell me the measured phosphorylation enrichment of AVEDQYFCVDC [FHL1_Y207_YF] , please.
## Result 0.868

## Task Tell me the measured phosphorylation enrichment of GGEEFYVHFVG [KAT8_Y90_R86G_YF] , please.
## Result 0.967

---

# phosphorylation enrichment per record follows
# targetOfAssay: Hck (UniProt P08631)
# Sequence (P08631 whole entry, looked up): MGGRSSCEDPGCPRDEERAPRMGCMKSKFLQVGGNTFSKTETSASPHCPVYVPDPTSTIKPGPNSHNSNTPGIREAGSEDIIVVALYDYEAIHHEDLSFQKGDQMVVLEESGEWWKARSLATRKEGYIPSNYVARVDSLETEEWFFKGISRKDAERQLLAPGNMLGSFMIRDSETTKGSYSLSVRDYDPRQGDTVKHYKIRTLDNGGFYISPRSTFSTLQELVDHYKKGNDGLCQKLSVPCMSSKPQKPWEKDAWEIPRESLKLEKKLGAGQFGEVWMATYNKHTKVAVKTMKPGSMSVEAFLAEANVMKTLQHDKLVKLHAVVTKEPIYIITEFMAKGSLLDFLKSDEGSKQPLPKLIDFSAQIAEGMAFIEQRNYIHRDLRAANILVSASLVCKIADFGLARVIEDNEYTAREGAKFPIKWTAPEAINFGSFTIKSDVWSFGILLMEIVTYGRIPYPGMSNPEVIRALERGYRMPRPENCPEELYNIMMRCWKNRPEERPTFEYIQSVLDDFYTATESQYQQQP
# assayName: phosphorylation enrichment, bacterial display (enrichment ratio); higher = better substrate or ligand; peptides without Tyr show the background
The answer should be a number; do not append a unit.

SHSMRYFDTAV [HLA-C_Y31]
0.424

## Task Tell me the measured phosphorylation enrichment of SSREGYVSHHN [FAM83B_Y433] , please.
## Result 0.354

## Task Tell me the measured phosphorylation enrichment of LANNEYYFQVC , please.
## Result 1.19
